System: SR leukemia
assay: NCI tumour cell line growth inhibition, 48 h
Each item that follows carries a reported TGI.

Examples with their reported TGI follow.
molecule	targetUnderTest	observed
N#Cc1ccc(C(=O)c2cnn(-c3ccc(F)cc3)c2N)cc1	SR leukemia	> 25 µM
Cc1cc(=O)n2c(cc3cccccc32)n1	SR leukemia	> 100 µM
O=S1(=O)OCCOS(=O)(=O)C1(Br)Br	SR leukemia	> 100 µM
CN(C)c1ccc2cc3c(cc2c1)Oc1ccccc1N3.[Cl][Zn][Cl]	SR leukemia	> 100 µM
CC(=O)Oc1ccc(C)c2c1[C@H]1CC[C@]3(C)[C@@H](OC(C)=O)CC[C@H]3[C@@H]1CC2	SR leukemia	> 100 µM
CN(CCc1ccccn1)/[N+]([O-])=N/O (tested in a mixture with another compound)	SR leukemia	> 100 µM
O=C(O)CC(S)C(=O)O.[Li+].[Sb] (stereo unspecified)	SR leukemia	> 100 µM
Cn1c2ccccc2c2c(=O)n(CCCC(=O)NCCc3cnc[nH]3)c3c(-c4ccccc4)nnn3c21	SR leukemia	> 50 µM

Read the next record carefully.
// Input: COc1ccc(C(=O)/C=C/c2c(C(F)(F)F)nc3ccccn23)cc1OC . Output its TGI only.
0.964 µM

* * *

Tested on: SF-295 CNS
assay: NCI tumour cell line growth inhibition, 48 h
Each item that follows carries a reported TGI.
Give just the number in µM; leave the unit off.

> print(dat)
                            structurestring  observed
1  CC(C)c1ccc(C(c2c(O)c3ccccc3oc2=O)c2c(O)c3ccccc3oc2=O)cc1        52
2  COc1ccc(Cl)cc1Nc1nc(C(F)(F)F)ccc1C(=O)N/N=C/c1ccccc1Cl      1.36

Read the next record carefully.
Report value: TGI, system: SF-295 CNS, molecule: O=C(/C=C/c1ccc(O)c(O)c1)c1ccc(O)cc1O
50.3

* * *

Tested on: TK-10 renal
assay: NCI tumour cell line growth inhibition, 48 h
Each item that follows carries a reported TGI.

Examples with their reported TGI follow.
> print(dat)
                                   compound  observed
1  CC1(C)C=C(N2CCN(C3=CC(C)(C)NC(C)(C)C3)CC2)CC(C)(C)N1  > 100 µM
2  COc1cc2c(cc1OC)-c1cc3cc(OC)c(OC)cc3c(C)[n+]1CC2 (tested in a mixture with another compound)  > 100 µM
3  CCCCCCC(O)C(=O)OC1C2C(CC1(C)C)C(O)C13OC1C(O)C1(CO1)[C@@]23C (some centres undefined)  > 100 µM

Report value: TGI, system: TK-10 renal, compound: CC(C)NC(=O)OCc1c(COC(=O)NC(C)C)c(-c2cc[n+](COC(=O)Cc3ccccc3)cc2)n2c1CCC2
> 100 µM

Report value: TGI, system: TK-10 renal, compound: CN(C)c1ccc(/C=N/n2c(CCCCc3n[nH]c(=S)n3/N=C/c3ccc(N(C)C)cc3)n[nH]c2=S)cc1
> 100 µM

Report value: TGI, system: TK-10 renal, compound: COc1ccc(C(=O)/C=C/c2c(C(F)(F)F)nc3ccccn23)cc1OC
> 20.6 µM

* * *

Test system: SF-295 CNS
assay: NCI tumour cell line growth inhibition, 48 h
Each item that follows carries a reported TGI.
Give just the number in µM; leave the unit off.

Examples with their reported TGI follow.
> print(dat)
                                   molecule  propertyname  observed
1  C#Cc1cccc(Nc2ncnc3ccc(-c4cnc(N)nc4)cc23)c1           TGI      12.2
2  C=C1C(=O)O[C@H]2[C@H]1CC/C(CNC(=O)C(C)c1ccc(CC(C)C)cc1)=C\CC[C@@]1(C)O[C@@H]21 (stereo not given in full)           TGI      14.7
3  CCCn1cc(/C=N\N=C2\C(=O)Nc3ccc(C)cc32)c2ccccc21           TGI      96.6

Report value: TGI, system: SF-295 CNS, molecule: CC(C)(Cl)C(Cl)CC/C(CBr)=C(\Cl)CBr (stereo not given)
16

Report value: TGI, system: SF-295 CNS, molecule: CC(c1ccccc1)n1c2ccccc2c2c(N)ncnc21 (stereo not given)
36.6

Report value: TGI, system: SF-295 CNS, molecule: Cc1ccc2c(c1)C(=O)/C(=C/c1cccc(OCC(=O)c3ccc(Cl)cc3)c1)CS2
12.1

Report value: TGI, system: SF-295 CNS, molecule: CCN(CC)CCOc1ccc(NC(=O)C(C(C)C)N2C(=O)/C(=C/c3ccc(Br)cc3)SC2=S)cc1 (stereo not given)
11.7

Report value: TGI, system: SF-295 CNS, molecule: COc1ccc(C(SCCO)(c2ccc(OC)cc2)c2ccc(OC)cc2)cc1
39.2

Report value: TGI, system: SF-295 CNS, molecule: COc1cccc2c1C(=O)c1c(O)c3c(c(O)c1C2=O)CC(O)(C(C)=O)CC3OC1OC(COC(C)=O)C(OC(C)=O)C(OC(C)=O)C1OC(C)=O (stereo not given)
62.8
